Source: patent US20220298107A1

# tested system: human DHODH (Homo sapiens, UniProt Q02127)
# Sequence (Q02127 whole entry): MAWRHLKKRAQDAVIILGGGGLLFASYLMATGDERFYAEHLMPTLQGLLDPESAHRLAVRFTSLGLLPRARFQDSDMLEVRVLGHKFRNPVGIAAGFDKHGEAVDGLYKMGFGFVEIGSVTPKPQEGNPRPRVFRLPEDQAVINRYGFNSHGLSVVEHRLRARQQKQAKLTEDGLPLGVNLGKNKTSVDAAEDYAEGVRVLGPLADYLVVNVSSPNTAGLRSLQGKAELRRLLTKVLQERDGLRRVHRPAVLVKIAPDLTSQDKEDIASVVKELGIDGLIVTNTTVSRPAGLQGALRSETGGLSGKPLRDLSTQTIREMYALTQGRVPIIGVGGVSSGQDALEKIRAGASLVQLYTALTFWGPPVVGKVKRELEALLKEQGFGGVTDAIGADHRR
# assay summary: biochemical
Please respond with Yes when measured EC50 is strictly beneath 4 nM, and with No in all other cases.

Please let me know if C[C@H](Oc1cc(NC(=O)N(C)CCF)c(F)cc1C(=O)Nc1c(F)cccc1Cl)C(F)(F)F shows EC50 below 4 nM.
No

Next:
Please let me know if Cc1n[nH]c(Cl)c1NC(=O)c1cc(F)c(NC(=O)N2CCC[C@@H]2CO)cc1O[C@@H](C)C(F)(F)F shows EC50 below 4 nM.
Yes

Please let me know if CCN(CC(F)F)C(=O)Nc1cc(O[C@@H](C)C(F)(F)F)c(C(=O)Nc2c(C)n[nH]c2Cl)cc1F shows EC50 below 4 nM.
Yes

Please let me know if CCN(CC(F)F)C(=O)Nc1cc(O[C@@H](C)C(F)(F)F)c(C(=O)Nc2c(C)cnc(OC)c2C)cc1F shows EC50 below 4 nM.
No

Please let me know if C[C@H](Oc1cc(NC(=O)N2CC(O)C2)c(F)cc1C(=O)Nc1c(F)cccc1Cl)C(F)(F)F shows EC50 below 4 nM.
No

Please let me know if CCN(CC(F)F)C(=O)Nc1cc(O[C@@H](C)C(F)(F)F)c(C(=O)Nc2c(C)ccnc2OC)cc1F shows EC50 below 4 nM.
No

Please let me know if C[C@H](Oc1cc(NC(=O)N(C)CC#N)c(F)cc1C(=O)Nc1c(F)cccc1Cl)C(F)(F)F shows EC50 below 4 nM.
No

Please let me know if C[C@H](Oc1cc(NC(=O)N2CCCCC2)c(F)cc1C(=O)Nc1c(F)cccc1Cl)C(F)(F)F shows EC50 below 4 nM.
No

Please let me know if CCCN(CC)C(=O)Nc1cc(O[C@@H](C)C(F)(F)F)c(C(=O)Nc2c(F)cccc2Cl)cc1F shows EC50 below 4 nM.
No

Please let me know if C[C@H](Oc1cc(NC(=O)N2CCC(F)C2)c(F)cc1C(=O)Nc1c(F)cccc1Cl)C(F)(F)F (some centres unmarked) shows EC50 below 4 nM.
No

Please let me know if C[C@H](Oc1cc(NC(=O)N2CC(CF)C2)c(F)cc1C(=O)Nc1c(F)cccc1Cl)C(F)(F)F shows EC50 below 4 nM.
No

Please let me know if COc1nccc(C)c1NC(=O)c1cc(F)c(NC(=O)N2CCC[C@@H]2CO)cc1O[C@@H](C)C(F)(F)F shows EC50 below 4 nM.
Yes

Please let me know if Cc1ccnc(Cl)c1NC(=O)c1cc(F)c(NC(=O)N2CCC[C@@H]2CO)cc1O[C@@H](C)C(F)(F)F shows EC50 below 4 nM.
Yes

Please let me know if CCN(CCOC)C(=O)Nc1cc(O[C@@H](C)C(F)(F)F)c(C(=O)Nc2c(F)cccc2Cl)cc1F shows EC50 below 4 nM.
Yes

Please let me know if C[C@H](Oc1cc(NC(=O)N2CCC2)c(F)cc1C(=O)Nc1c(F)cccc1Cl)C(F)(F)F shows EC50 below 4 nM.
Yes

Please let me know if CCN(C(=O)Nc1cc(O[C@@H](C)C(F)(F)F)c(C(=O)Nc2c(F)cccc2Cl)cc1F)C(C)C shows EC50 below 4 nM.
No

Please let me know if C[C@H](Oc1cc(NC(=O)N(C)CCO)c(F)cc1C(=O)Nc1c(F)cccc1Cl)C(F)(F)F shows EC50 below 4 nM.
Yes
